Source: paper PMC8291587

# Tested on: M2R/M3R
# Procedure Details: Ex vivo screening of muscarinic M2R/M3R antagonists on isolated guinea pig ileum (methacholine-induced contraction)
# Applied Conditions: methacholine as agonist
Parameter: M2R/M3R pA2 gpi ± sem

>>> value_observed("N=C(N)N(CCCCN1CCN(C[C@H]2CC[C@@H](COc3ccccc3)CC2)CC1)Cc1ccccc1")
6.97
>>> value_observed("N=C(N)N(CCCCN1CCN(C[C@H]2CC[C@H](COc3ccccc3)CC2)CC1)Cc1ccccc1")
6.02
>>> value_observed("N=C(N)N(CCCCN1CCN(Cc2ccc(Oc3ccccc3)cc2)CC1)Cc1ccc(C(F)(F)F)cc1")
5.83
>>> value_observed("N=C(N)N(CCCCN1CCN(Cc2ccc(COc3ccccc3)cc2)CC1)Cc1ccc(C(F)(F)F)cc1")
5.83
>>> value_observed("[H]/N=C(/N)N(CCCCN1CCN(CC2CCC(COc3ccccc3)CC2)CC1)Cc1ccc(C(F)(F)F)cc1 (centres unmarked)")
6.46
>>> value_observed("N=C(N)N(CCCCN1CCN(Cc2ccc(COc3ccccc3)cc2)CC1)Cc1ccccc1")
5.77
>>> value_observed("C[N+]1(C)CCC(OC(=O)C(c2ccccc2)c2ccccc2)CC1.[I-] [4-DAMP, reference compound]")
9.05
>>> value_observed("[H]/N=C(\\N)N(CCCCN1CCN(CC2CCC(COc3ccccc3)CC2)CC1)Cc1ccc(C(F)(F)F)cc1 (centres unmarked)")
5.68
